List of pIC50 values.
# Test system: Ba/F3 EGFR-L747S/G719A
# assay name: Anti-proliferation, CellTiter-Glo Luminescent Cell Viability Assay
# Assay type: cell-based
# experimental parameters: Mus musculus, BaF3, 72 h, 3 days
Remember the convention: pIC50 equals -log10 of concentration in molar.

- C=CC(=O)Nc1cc(Nc2nccc(-c3cn(C)c4ccccc34)n2)c(OC)cc1N(C)CCN(C)C [AZD9291, reference compound]: 7.04

Query molecule follows.
[in] # pIC50 lookup, item C=CC(=O)Nc1cc(Nc2nccc(-c3cn(C)c4ccccc34)n2)c(OCC(F)(F)F)nc1N(C)CCN(C)C [Furmonertinib mesilate]
[out] 7.78
